Target protein (sequence): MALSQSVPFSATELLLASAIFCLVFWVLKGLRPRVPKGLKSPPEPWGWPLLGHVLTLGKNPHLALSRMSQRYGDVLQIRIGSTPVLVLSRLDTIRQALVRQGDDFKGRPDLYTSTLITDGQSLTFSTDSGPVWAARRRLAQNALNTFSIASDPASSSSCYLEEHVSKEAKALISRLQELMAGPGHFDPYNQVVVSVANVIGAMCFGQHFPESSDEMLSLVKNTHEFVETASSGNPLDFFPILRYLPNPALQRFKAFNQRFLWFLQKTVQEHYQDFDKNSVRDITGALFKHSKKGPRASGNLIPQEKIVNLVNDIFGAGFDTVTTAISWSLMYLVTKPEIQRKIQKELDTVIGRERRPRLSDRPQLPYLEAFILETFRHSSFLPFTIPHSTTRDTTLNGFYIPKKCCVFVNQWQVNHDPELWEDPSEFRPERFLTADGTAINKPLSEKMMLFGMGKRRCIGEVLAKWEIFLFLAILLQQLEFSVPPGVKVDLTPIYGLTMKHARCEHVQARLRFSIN
Listed compounds paired with reported IC50

{"columns": ["SMILES REPR", "IC50"],
 "data": [
  ["CS(=O)(=O)c1ccc(-n2nc(C(F)(F)F)c3c2CCCC3)cc1", "4 µM"],
  ["O=C1CCCN1Cc1ccc(-n2nc(C(F)(F)F)c3c2CCCC3)cc1F", "2 µM"],
  ["O=C(c1ccc(-n2nc(C(F)(F)F)c3c2COCC3)cc1)N1CCCC1", "> 10 µM"],
  ["CN1CCc2c(C(F)(F)F)nn(-c3ccc(CN4CCCC4=O)cc3)c2C1", "> 10 µM"]
]}

Field: next compound
Enquiry: Which IC50 is reported for this compound? CC(=O)c1ccc(-n2nc(C(F)(F)F)c3c2CCCC3)cc1
Return: 0.1 µM

###

# EXPERIMENTAL DETAILS: Half life in Swiss Beagle dog at 0.25 mg/kg, iv
# Format: ADME, organism-based, Canis lupus familiaris
# Parameters: dose 0.25 mg/kg, route intravenous
# RUN PARAMETERS: in vivo
QUANTITY: half-life (h)
Numeric answer only, unit h assumed.

Enquiry: Recorded half-life of O=C(c1ccc(-n2nc(C(F)(F)F)c3c2CCCC3)cc1)N1CCCC1 , please.
Return: 1.3

###

# EXPERIMENTAL DETAILS: Volume of distribution at steady state in Gottingen minipig at 0.5 mg/kg, iv and 1 mg/kg, po
# Assay type: ADME, organism-based, Sus scrofa
# RUN PARAMETERS: pig, in vivo, read-out: Vdss
QUANTITY: Vd (L/kg)
Numeric answer only, unit L/kg assumed.

Enquiry: What Vd value was documented for this compound, O=C(c1ccc(-n2nc(C(F)(F)F)c3c2CCCC3)cc1)N1CCCC1 ?
Return: 3.2

###

# EXPERIMENTAL DETAILS: AUC ( 0 to t) in rat at 3 mg/kg, po
# Assay type: ADME, organism-based, Plasma
# Design: dose 3 mg/kg, route oral
# RUN PARAMETERS: plasma
QUANTITY: AUC(0-t) (ng·h/mL)
Express it in ng·h/mL; write the number only.

Some solved cases for reference:
{"columns": ["SMILES REPR", "AUC(0-t) / ng·h/mL"],
 "data": [
  ["O=C1CCCN1Cc1ccc(-n2nc(C(F)(F)F)c3c2CCCC3)cc1F", 331],
  ["O=C(c1ccc(-n2nc(C(F)(F)F)c3c2CCCC3)cc1)N1CCCC1", 472],
  ["O=S1(=O)CCCN1Cc1ccc(-n2nc(C(F)(F)F)c3c2CCCC3)cc1", 364],
  ["O=C(Cc1ccc(-n2nc(C(F)(F)F)c3c2CCCC3)cc1)N1CCCC1", 166],
  ["CS(=O)(=O)NCc1ccc(-n2nc(C(F)(F)F)c3c2CCCC3)cc1", 416],
  ["CN(C)C(=O)Cc1ccc(-n2nc(C(F)(F)F)c3c2CCCC3)cc1", 262],
  ["O=C(Cc1ccc(-n2nc(C(F)(F)F)c3c2CCCC3)cc1F)N1CCCC1", 248],
  ["O=C1CCCN1Cc1ccc(-n2nc(C(F)(F)F)c3c2CCCC3)cc1", 231]
]}

Enquiry: What value of AUC(0-t) has been reported for the following compound? O=C(c1ccc(-n2nc(C(F)(F)F)c3c2CCCC3)cc1)N1CCOCC1
Return: 1980

###

# EXPERIMENTAL DETAILS: Half life in cynomolgus monkey at 0.25 mg/kg, iv
# Type: ADME, organism-based, Macaca fascicularis
# Design: dose 0.25 mg/kg, route intravenous
# RUN PARAMETERS: in vivo
QUANTITY: half-life
Note to self: number, then unit, no commentary.

Enquiry: Entry O=C(c1ccc(-n2nc(C(F)(F)F)c3c2CCCC3)cc1)N1CCCC1 has what half-life?
Return: 30 min

###

# EXPERIMENTAL DETAILS: Half life in Sprague-Dawley rat at 3 mg/kg, po
# Type: ADME, organism-based
# Design: dose 3 mg/kg, route oral
# RUN PARAMETERS: in vivo
QUANTITY: half-life (h)
Your answer should be a plain number; it is taken to be in h.

Enquiry: I am curious: what half-life value has been reported for O=C(c1ccc(-n2nc(C(F)(F)F)c3c2CCCC3)cc1)N1CCCC1 ?
Return: 2.3

###

# TARGET: Glutamate receptor 2 (Homo sapiens)
# Sequence (P42262 whole entry, canonical isoform): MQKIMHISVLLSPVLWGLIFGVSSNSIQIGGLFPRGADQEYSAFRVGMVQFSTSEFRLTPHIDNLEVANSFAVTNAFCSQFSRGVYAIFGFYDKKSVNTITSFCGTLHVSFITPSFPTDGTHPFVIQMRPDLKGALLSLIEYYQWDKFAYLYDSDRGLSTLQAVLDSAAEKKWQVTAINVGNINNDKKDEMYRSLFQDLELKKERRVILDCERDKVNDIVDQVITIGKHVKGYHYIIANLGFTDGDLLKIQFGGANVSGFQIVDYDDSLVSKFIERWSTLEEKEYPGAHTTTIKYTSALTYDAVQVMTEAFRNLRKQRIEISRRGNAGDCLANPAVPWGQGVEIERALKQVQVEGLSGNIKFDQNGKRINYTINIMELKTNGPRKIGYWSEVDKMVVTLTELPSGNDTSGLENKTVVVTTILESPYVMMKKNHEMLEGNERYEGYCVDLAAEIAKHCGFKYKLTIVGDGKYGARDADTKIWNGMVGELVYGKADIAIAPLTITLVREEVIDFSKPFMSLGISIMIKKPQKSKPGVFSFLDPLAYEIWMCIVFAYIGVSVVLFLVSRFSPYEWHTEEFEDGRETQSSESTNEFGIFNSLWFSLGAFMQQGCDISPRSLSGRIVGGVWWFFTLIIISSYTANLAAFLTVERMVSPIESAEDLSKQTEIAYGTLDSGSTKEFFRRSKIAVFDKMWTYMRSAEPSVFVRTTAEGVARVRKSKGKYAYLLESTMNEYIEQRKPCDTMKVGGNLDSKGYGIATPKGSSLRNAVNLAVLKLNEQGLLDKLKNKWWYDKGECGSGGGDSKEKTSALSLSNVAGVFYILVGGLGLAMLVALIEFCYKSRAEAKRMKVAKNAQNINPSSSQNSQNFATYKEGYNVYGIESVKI
# EXPERIMENTAL DETAILS: Allosteric modulation of human recombinant GluA2 receptor flip isoform expressed in HEK293 cells assessed as potentiation of glutamate-induced calcium influx by Fluo-4/FLIPR method relative to cyclothiazide
# Assay type: cell-based
QUANTITY: Activity (%)
State just the number; it will be interpreted in %.

A selection of reference data follows.
{"columns": ["COMPOUND", "UNIT SPEC", "Activity"],
 "data": [
  ["O=C(Cc1ccc(-n2nc(C(F)(F)F)c3c2CCCC3)cc1F)N1CCCC1", "%", 79],
  ["O=C1CCCN1Cc1ccc(-n2nc(C(F)(F)F)c3c2CCOC3)cc1", "%", 138],
  ["O=C(Cc1ccc(-n2nc(C(F)(F)F)c3c2CCCC3)cc1)NC1CCCC1", "%", 100]
]}

Enquiry: Query for Glutamate receptor 2 (Homo sapiens): what Activity does the record show for CC(C(=O)N1CCCC1)c1ccc(-n2nc(C(F)(F)F)c3c2CCCC3)cc1 (stereo not drawn) ?
Return: 81

Enquiry: Try CC(=O)c1ccc(-n2nc(C(F)(F)F)c3c2CCCC3)cc1 next.
Return: 94

Enquiry: Now the compound O=C(c1ccc(-n2nc(C(F)(F)F)c3c2CCCC3)cc1)N1CCOCC1
Return: 81

Enquiry: Would you mind doing CN(Cc1ccc(-n2nc(C(F)(F)F)c3c2CCCC3)cc1)S(C)(=O)=O as well?
Return: 102

Enquiry: Next compound: O=C(c1ccc(-n2nc(C(F)(F)F)c3c2CCCC3)cc1)N1CCCC1
Return: 123

Enquiry: Next up: CN(C)S(=O)(=O)c1ccc(-n2nc(C(F)(F)F)c3c2CCCC3)cc1
Return: 63

###

# EXPERIMENTAL DETAILS: Plasma protein binding in rat at 3 mg/kg, po
# Format: ADME, organism-based
# Set-up: dose 3 mg/kg, route oral
# RUN PARAMETERS: read-out: PPB (converted)
QUANTITY: fraction unbound
Please give the numeric answer without any surrounding text.

Recorded results for 5 molecules are shown here.
{"columns": ["SMILES REPR", "fraction unbound"],
 "data": [
  ["CS(=O)(=O)NCc1ccc(-n2nc(C(F)(F)F)c3c2CCCC3)cc1", 0.021],
  ["O=C(Cc1ccc(-n2nc(C(F)(F)F)c3c2CCCC3)cc1)N1CCCC1", 0.004],
  ["CN(C)C(=O)c1ccc(-n2nc(C(F)(F)F)c3c2CCCC3)cc1", 0.048],
  ["O=C1CCCN1Cc1ccc(-n2nc(C(F)(F)F)c3c2CCOC3)cc1", 0.16],
  ["O=C(c1ccc(-n2nc(C(F)(F)F)c3c2CCCC3)cc1)N1CCOCC1", 0.026]
]}

Attention now shifts to the item below.
Enquiry: Need fraction unbound of O=C(c1ccc(-n2nc(C(F)(F)F)c3c2CCOC3)cc1)N1CCCC1 , thanks.
Return: 0.137

###

# EXPERIMENTAL DETAILS: in vivo
# RUN PARAMETERS: Sprague-Dawley, rat, po, 3 mg/kg
# Description: Oral bioavailability in Sprague-Dawley rat at 3 mg/kg
QUANTITY: bioavailability (%)
Could you give me the number in %? Just the number is fine.

Enquiry: Sample O=C(c1ccc(-n2nc(C(F)(F)F)c3c2CCCC3)cc1)N1CCCC1 — what was its bioavailability?
Return: 54

###

Observed IC50 for Cytochrome P450 2C9 (Homo sapiens), reported per entry below.
Number in nM, nothing else.

Sample records with IC50:
{"columns": ["SMILES REPR", "IC50 [nM]"],
 "data": [
  ["O=C(Cc1ccc(-n2nc(C(F)(F)F)c3c2CCCC3)cc1)NC1CCCC1", 200],
  ["CN(C)S(=O)(=O)c1ccc(-n2nc(C(F)(F)F)c3c2CCCC3)cc1", 2000],
  ["O=C1CCCN1Cc1ccc(-n2nc(C(F)(F)F)c3c2CCCC3)cc1F", 9000],
  ["O=C(Cc1ccc(-n2nc(C(F)(F)F)c3c2CCCC3)cc1)N1CCCC1", 3000]
]}

Please turn your attention to the following entry.
Enquiry: So what's the measured IC50 for this one? O=C(N1CCCC1)C1(c2ccc(-n3nc(C(F)(F)F)c4c3CCCC4)cc2)CC1
Return: 300
